Target: HLA-A*68:02
Experiment: IEDB peptide-MHC binding, purified MHC/competitive/radioactivity; bounds were set here for any values at or beyond the usual limits of such assays
Settings: source organism: Vaccinia virus WR
Readout Name: log10 of IC50 (log10 of the value in nM)

INSERT INTO assay_data (residues, reading) VALUES
  ('MMNITRLEVI', 2.63),
  ('GVMYAFTTPL', 3.40),
  ('GTIILNKIV', 2.97),
  ('ELPVKTDIV', 3.56),
  ('ELPYVGDTSM', 2.96),
  ('VQEFIFSAL', 2.74),
  ('IASILSLETV', 2.30),
  ('CAVIPFDDIV', 2.14),
  ('LMTLDDLAI', 3.64),
  ('ETMYLTMKAI', 0.60),
  ('STTGEWPLI', 2.78),
  ('IISSKQYPA', 3.55),
  ('DVQRTRCKYV', 3.16),
  ('HILHAYCGI', 2.16),
  ('NLTQLFKYV', 3.64),
  ('PLISILMIFI', 2.96),
  ('AAAATCALV', 1.08),
  ('CTINVNSLAL', 2.71),
  ('SASDMQKFTI', 2.69),
  ('TIGTIAGGV', 1.85),
  ('SQAKKPEVRI', 3.22),
  ('EALYYVHSL', 2.54),
  ('ITDNGPMPYM', 2.67),
  ('SIMSMMNIT', 3.37),
  ('GIFVDTMSI', 3.60),
  ('VMYAFTTPL', 2.05),
  ('MVTDKTAYI', 0.51),
  ('DINESMSQMV', 3.32),
  ('KIMEIVSHL', 3.03),
  ('NTKSDNIINI', 2.00),
  ('ITHTNITTLL', 2.49),
  ('LVAEHRFENM', 3.15),
  ('TILDDNLYKV', 3.15),
  ('IVNCLSLSNL', 3.56),
  ('FIASAPQQL', 1.54),
  ('ETDDDGNYPL', 1.43),
  ('NVIEDITFL', 1.49),
  ('STISWMMKL', -0.64),
  ('IVSRSSRGV', 3.01),
  ('LATLNTLITL', 3.02),
  ('ITTLLNETA', 1.85),
  ('IIGHIGHHYI', 2.35),
  ('TIILNKIVQL', 3.43),
  ('RIITILQDI', 3.17),
  ('EVGTNFGTI', 1.84),
  ('IVSLCPTKKL', 2.72),
  ('TTTFITVLT', 1.52),
  ('MAAAKTPVIV', 3.08),
  ('SLTTIGTIA', 2.51),
  ('RAFIYSIMET', 2.93),
  ('TIAHINTLI', 2.11),
  ('IVVALSSLV', 0.73),
  ('YTVEFDRDKV', 0.65),
  ('LLGLILFVL', 2.96),
  ('ELAYYNSCM', 2.44),
  ('STFNMWREI', 1.30),
  ('TINALVYFST', 2.59),
  ('PASISSVLTI', 3.65),
  ('IVILFIMFM', 2.82),
  ('SVDIETAIRA', 2.92),
  ('PTSETMYLTM', 3.62),
  ('AVTLNRIKI', 3.69),
  ('RAAIDRQVSV', 1.73),
  ('CLKNEGVSGL', 3.32),
  ('EVLMSPCRM', 3.18),
  ('AVIPFDDIV', 2.96),
  ('FISIYSRPKI', 2.77),
  ('TIVSRSSRGV', 3.10),
  ('RVFKKIMSI', 2.23),
  ('ETIQKDINI', 1.66),
  ('DQLVFNSISA', 3.62),
  ('FISYNRHNDT', 3.36),
  ('LTHGADPNA', 3.14),
  ('FLDWIKDIMT', 3.69),
  ('DIYDAVRAFL', 2.41),
  ('ETQSGALEVL', 1.76),
  ('ETFPNVHEHI', -0.35),
  ('IVQLPKRGV', 3.63),
  ('FISSFLLPLT', 2.99),
  ('RTRCKYVGCT', 3.67),
  ('SAGFTATICL', 3.59),
  ('NAILHNIYRL', 2.86),
  ('IIAVFDSKL', 3.37),
  ('LTSVDIETAI', 2.34),
  ('HVLLPFYETL', 3.36),
  ('ILKDPRIASI', 3.66),
  ('DVLPFDIKYI', 2.56);
